Assay: yeast display, Sf9 membrane polyspecificity reagent, FACS + sequencing; frameworks hold sequencing errors
quantity-measured: polyreactivity (PSR sort gate)

- QVQLVESGGGLVQAGGSLRLSCAASGSIFGEYAMGWYRQAPGKERELVATISWSAGSTYYADSVKGRFTISRDYAKNTVYLQMNSLKPEDTAVYYCAAAYDGYYLSTFDSWGQGTQVTVSS: low polyreactivity
- QVQLVESGGGLVQAGGSLRLSCAASGRIFGYYAMVCYRQAPGKERELVAAISSGGGSTYYADSVKGRFTISRDNAKNTVYLQMNSLKPEDTAVYYCIVAYRWSTRYDYWGQGTQVTVSS: high polyreactivity
- QVQLVESGGGLVQAGGSLRLSCAASGSTFGYNTMGWYREAPGKERELVAAITGTGRTNYADSVKGRFTISRDNAKNTVYLQMNSLKPEDTAVYYCNARQAGTRYKYGYYGRYYWGQGTQVTVSS: high polyreactivity
- QVQLVESGGGLVQAGGSLRLSCAASGRNFENNAMGWYRQAPGKERELVAAITSSGGRTYYADSVKGRFTISRDNAKNTVYLQMNSLKPEDTAVYYCAADNFAPEFYYWGQGTQVTVSS: low polyreactivity
- QVQLVESGGGLVQAGGSLRLSCAASGSTFYPNAMGWYRQAPGKERELVAAISWSGGRTYYADSVKGRFTISRDNAKNTVYLQMNSLKPEDTAVYYCNRYHRTSWRAKYDYWGQGTQVTVSS: high polyreactivity
- QVQLVESGGGLVQAGGSLRLSCAASGRIFWDNAMGWYRQAPGKERELVAAISDSVVITYYADSVKGRFTISRDNAKNTVYLQMNSLKPEDTAVYYCNTDARYDEYDEFDYWGQGTQVTVSS: low polyreactivity

Now consider the entry below.
Form field polyreactivity (PSR sort gate), entry `QVQLVESGGGLVQAGGSLRLSCAASGSIFYRYAMGWYRQAPGKERELVAAISYSGGSTYYADSVKGRFTISRDNAKNTVYLQMNSQKPEDTAVYYCAKDYPPPISDYSRYYGYGYWGKGTQVTVSS` : low polyreactivity

====

Assay: yeast display, Sf9 membrane polyspecificity reagent, FACS + sequencing; frameworks hold sequencing errors
quantity-measured: polyreactivity (PSR sort gate)

- QVQLVESGGGLVQAGGSLRLSCAASGLIFGTYAMGWYRQAPGKERELVATITRGGGSTYYADSVKGRFTISRDNAKNTVYLQMNSLKPEDTAVYDCAKTYFYGVRRFNYWGQGTQVTVSS: high polyreactivity
- QVQLVESGGRLVQAGGSLRLSCAASGGIFTAYTMGWYRQAPGKESELVAVISSGGGRTYYADSVKGRFTISRDNAKNTVYLQMNSLKPEDTAVYYCNARVYVSANKYDYWGQGTQVTVSS: high polyreactivity
- QVQLVESGGGLVQAGGSLRLSCAASGSTFYPNAMGWYRQAPGKERELVAVITRSGGSTYYADSVKGRFTISRDNAKNTVYLQMNSLKPEDTAVYYCNAAYRTAYYGPRYDYWGQGTQVTVSS: high polyreactivity

====

Assay: yeast display, Sf9 membrane polyspecificity reagent, FACS + sequencing; frameworks hold sequencing errors
quantity-measured: polyreactivity (PSR sort gate)

Would you please look over these solved cases?
• QVQLVESGGGLVQAGGSLRLSCAASGSTFQPNAMGWYRQAPGKERELVAAITGGDNTNYADSVKGRFTISRDNAKNTVYLQMNSLKPEDTAVYYCAAGGLGSRWYVGYDYWGQGTQVTVSS = low polyreactivity
• QVQLVESGGGLVQAGGSLRLICAAWSIFYLNAMGWYRQAPGKERELVAAISSAGSTYYADSVKGRFTISRDNAKNSVYLQMNSLKPEDTAVYYCAAYWYDSPGVTEIWYDYWGQGTQVTVSS = low polyreactivity
• QVQLVESGGGLVQAGGSLRLSCAASGSIFTSYAMVWYRQAPGKERELVAAITSGGSTYYAHSVKGRFTISRDNAKKTVYLLMNSLKPEDTAVYYCAALQVRTSKLHMGYWGQGTQVTVSS = low polyreactivity
• QGQLVESGGGLVQAGGSLRLSCAASGRTFKVYAMGWYRQAPGKERELVAAISFSGGSTYYADSVKGRFTISRDNAKNTVYLQMNSLKPEDTAVYYCATTYPGAIRDYWGQGTQVTVSS = high polyreactivity
• QVQLVESGGGLVQAGGSLRLSCAASGSTFGPYTMGWKRPAPGKERELVATISSGGSTYYADSVKGRFTISRDNAKNTVYLQLNCLKPEDTAVYSCAKDFWYRSYDYWGQGTQVTLSS = low polyreactivity

Lab note: measured polyreactivity (PSR sort gate) of `QVQLVESGGGLVQAGGSLRLSCAASGRTFYDNTMGWYRQAPWKERELVAAISRGGSTYADSVKGRFTISRDNAKNTVYLQMNSLKPEDTAVYYCNKRSITTEYGYWGQGTQVTVSS` was low polyreactivity

Given item `QVQLVESGGGLVQAGGSLRLSCAASGSTFAKYAMGWYRQAPGKERELVATITDGGSTYYADSVKGRFTISRDNAKNTVYLQMNRMKPEDTAVYYCNAVILYWLYTSYVAGWPYDYWGQGTQVTVSS` , the value recorded as its polyreactivity (PSR sort gate) is high polyreactivity

Reference source for all entries: the nanobody polyreactivity screen of Harvey et al. (2022)
